# Test system: SW-620 colon
# assay.summary: NCI tumour cell line growth inhibition, 48 h
assay.metric: TGI (µM)
Report the figure in µM without appending any unit label.

- compound: "Clc1ccc(Cc2nc3cc(Cl)c(Cl)cc3n2CC2CCCN3CCCCC23)cc1 (centres undefined)"
  measurement.target: "SW-620 colon"
  unit.descriptor: "µM"
  TGI: 31.3
- compound: "CC(=O)O[C@H]1CSC[C@@H](OC(C)=O)C1[N+](=O)[O-] (some centres undefined)"
  measurement.target: "SW-620 colon"
  unit.descriptor: "µM"
  TGI: 74.3
- compound: "COc1cc2c(c3oc4c(O)cccc4c(=O)c13)CC(C(C)(O)CCl)O2 (centres undefined)"
  measurement.target: "SW-620 colon"
  unit.descriptor: "µM"
  TGI: 3.74

Read the next record carefully.
Asked: Consider the compound Cc1c(CCCl)c(Cl)n2c(nc3ccccc32)c1C#N . State its measured TGI.
Given back: 0.801
